Test: Acute toxicity (Behrens-Karber method)
Conditions: mouse, in vivo, po, mortality one week after administration; read-out: LD50, p.o.
Description: The test compound was administered orally (p.o.) or intravenously (i.v.) from a tail vein to ddY male mice weighing 24±2 g. The LD50 values were calculated by the Behrens-Karber method [Arch. exp. Path. Pharmak., 177, 379 (1935)] from the mortality one week after administration.
Field 'label' (enum: Satisfied / Not satisfied). Set to Satisfied when LD50 at 168 h is strictly under 1000 mg/kg; else Not satisfied.

Solved entries:
C1CSc2c(nc(N3CCNCC3)nc2N2CCCC2)C1.O=C(O)/C=C\C(=O)O [Compound E]    Not satisfied
CNc1nc(N2CCNCC2)nc2c1SCCC2 [Compound B]    Satisfied
C1CSc2c(nc(N3CCNCC3)nc2N2CCOCC2)C1.O=C(O)/C=C\C(=O)O [Compound G]    Satisfied

Query :: Determine if Nc1nc2c(c(N3CCNCC3)n1)SCCC2.O=C(O)/C=C\C(=O)O.O=C(O)/C=C\C(=O)O [Compound C] shows LD50 at 168 h strictly lower than 1000 mg/kg.
Result :: Not satisfied

Query :: Determine if Nc1nc(N2CCNCC2)nc2c1SCCC2 [Compound D] shows LD50 at 168 h strictly lower than 1000 mg/kg.
Result :: Satisfied

Query :: Determine if CN1CCN(c2nc(N)c3c(n2)CCCS3)CC1 [Compound A] shows LD50 at 168 h strictly lower than 1000 mg/kg.
Result :: Not satisfied

Query :: Determine if CN1CCN(c2nc3c(c(N4CCCC4)n2)SCCC3)CC1.O=C(O)/C=C\C(=O)O [Compound F] shows LD50 at 168 h strictly lower than 1000 mg/kg.
Result :: Not satisfied

Query :: Determine if CN1CCN(c2nc3c(c(N4CCOCC4)n2)SCCC3)CC1 [Compound H] shows LD50 at 168 h strictly lower than 1000 mg/kg.
Result :: Not satisfied

====

Recorded LD50 at 168 h for the following compounds
assay: Acute toxicity (Behrens-Karber method); conditions: mouse, in vivo, iv, mortality one week after administration; read-out: LD50, i.v.
// return numeric value only (unit: mg/kg, not printed)

Answered cases to consult:
C1CSc2c(nc(N3CCNCC3)nc2N2CCOCC2)C1.O=C(O)/C=C\C(=O)O [Compound G]    135
CN1CCN(c2nc3c(c(N4CCCC4)n2)SCCC3)CC1.O=C(O)/C=C\C(=O)O [Compound F]    100
C1CSc2c(nc(N3CCNCC3)nc2N2CCCC2)C1.O=C(O)/C=C\C(=O)O [Compound E]    125

Query :: Field request: LD50 at 168 h | item: CN1CCN(c2nc3c(c(N4CCOCC4)n2)SCCC3)CC1 [Compound H]
Result :: 200
